Molecular target: human CYP11B2 (Homo sapiens)
Sequence (P19099 25-503): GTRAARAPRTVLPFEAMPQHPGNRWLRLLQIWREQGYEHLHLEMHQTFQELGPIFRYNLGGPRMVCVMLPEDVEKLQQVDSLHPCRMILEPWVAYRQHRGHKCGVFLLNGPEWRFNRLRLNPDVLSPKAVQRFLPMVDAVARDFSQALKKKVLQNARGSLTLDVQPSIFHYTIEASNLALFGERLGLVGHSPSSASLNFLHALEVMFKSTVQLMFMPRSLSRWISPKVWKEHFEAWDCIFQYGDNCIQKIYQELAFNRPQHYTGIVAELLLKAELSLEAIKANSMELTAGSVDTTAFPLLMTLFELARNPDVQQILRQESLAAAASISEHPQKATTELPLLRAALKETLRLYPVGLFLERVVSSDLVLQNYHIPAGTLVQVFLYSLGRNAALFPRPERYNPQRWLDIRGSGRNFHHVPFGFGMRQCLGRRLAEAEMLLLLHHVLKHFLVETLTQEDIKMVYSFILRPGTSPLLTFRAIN
Experiment: G-402 cellular enzyme assay, human CYP11B2 (aldosterone release, HTRF)
Details: G-402 cells expressing human CYP11B2; 1 μM Deoxycorticosterone; 16 h
Hi! Could you tag entries with EC50 below 0.03 µM as y, and those at or above as n? Much appreciated.

- COMPOUND: "CSc1ccc(C(=O)c2cncn2C)cc1 [Example 43]"
  LABEL: "y"
- COMPOUND: "CCn1cncc1C(=O)c1ccc(N(C)C(C)=O)cc1 [Example 67]"
  LABEL: "n"
- COMPOUND: "CCn1cncc1C(=O)c1ccc(Cl)cc1 [Example 7]"
  LABEL: "y"
- COMPOUND: "Cn1cncc1C(=O)c1ccc(C(F)(F)F)cc1 [Example 31]"
  LABEL: "n"
- COMPOUND: "CCn1cncc1C(=O)c1ccc2c(c1)CCC(=O)N2C [Example 26]"
  LABEL: "y"

---

Each entry below carries its reported log10(EC50).
molecular target: human CYP11B2 (Homo sapiens); construct: expressed in transfected cells; experiment: G-402 cellular enzyme assay, human CYP11B2 (aldosterone release, HTRF); type: cell-based; conditions: G-402 cells expressing human CYP11B2; 1 μM Deoxycorticosterone; 16 h
ASSAY ENDPOINT: log10(EC50) (log10 of the value in nM)

- MOLECULE: "Cn1cncc1C(=O)c1ccc(Br)cc1"
  log10(EC50): 1.27
- MOLECULE: "CC(C)n1cncc1C(=O)c1ccc(F)c(C#N)c1"
  log10(EC50): 2.51
- MOLECULE: "CCn1cncc1C(=O)c1ccc(F)c(C#N)c1"
  log10(EC50): 2.53
- MOLECULE: "CC(C)n1cncc1C(=O)c1ccc(Cl)cc1"
  log10(EC50): 0.32
- MOLECULE: "CC(C)n1cncc1C(=O)c1ccc(F)c(Cl)c1"
  log10(EC50): 0.59
- MOLECULE: "CCn1cncc1C(=O)c1cccc(C#N)c1"
  log10(EC50): 2.04
- MOLECULE: "Cn1cncc1C(=O)c1ccc(C#N)cc1"
  log10(EC50): 1.06
- MOLECULE: "Cn1cncc1C(=O)c1ccc2sccc2c1"
  log10(EC50): 1.61
- MOLECULE: "CCC(C)n1cncc1C(=O)c1ccc(C#N)cc1 (centres unmarked)"
  log10(EC50): -0.15
- MOLECULE: "O=C(c1ccc(F)c(F)c1)c1cncn1-c1ccc(Cl)cc1"
  log10(EC50): 0.53
- MOLECULE: "CCn1cncc1C(=O)c1ccc(Cl)c(Cl)c1"
  log10(EC50): 0.26
- MOLECULE: "N#Cc1ccc(-n2cncc2C(=O)c2ccc(Cl)c(Cl)c2)cc1Cl"
  log10(EC50): 0.57
- MOLECULE: "Cn1cncc1C(=O)c1ccc(F)c(Cl)c1"
  log10(EC50): 1.07
- MOLECULE: "Cn1cncc1C(=O)c1cccc(F)c1"
  log10(EC50): 1.81
- MOLECULE: "Cn1cncc1C(=O)c1ccc(Cl)cc1"
  log10(EC50): 1.79
- MOLECULE: "CCC(CC)n1cncc1C(=O)c1cccc(C#N)c1"
  log10(EC50): 0.76
- MOLECULE: "CCn1cncc1C(=O)c1ccc(N(C)C(=O)OC(C)(C)C)cc1"
  log10(EC50): 3.34
- MOLECULE: "CCC(C)n1cncc1C(=O)c1cccc(C#N)c1 (centres unmarked)"
  log10(EC50): 0.80
- MOLECULE: "CCSc1ccc(C(=O)c2cncn2C(C)C)cc1"
  log10(EC50): 0.72
- MOLECULE: "CCn1cncc1C(=O)c1ccc(C(C)(C)C)cc1"
  log10(EC50): 3.56
- MOLECULE: "C#Cc1ccc(C(=O)c2cncn2C(C)C)cc1"
  log10(EC50): -0.30
- MOLECULE: "C#Cc1ccc(C(=O)c2cncn2C)cc1"
  log10(EC50): 1.31
- MOLECULE: "N#Cc1ccc(C(=O)c2cncn2C2CC2)cc1"
  log10(EC50): 0.36
- MOLECULE: "CCC(CC)n1cncc1C(=O)c1ccc(C#N)cc1"
  log10(EC50): -0.70
- MOLECULE: "N#Cc1ccc(-n2cncc2C(=O)c2ccc(Cl)cc2)cc1"
  log10(EC50): 0.34
- MOLECULE: "CC(C)n1cncc1C(=O)c1ccc(Cl)c(Cl)c1"
  log10(EC50): -0.30
- MOLECULE: "Cn1cncc1C(=O)c1ccc(Cl)c(Cl)c1"
  log10(EC50): 0.69
- MOLECULE: "CCn1cncc1C(=O)c1ccc(C#N)c(Cl)c1"
  log10(EC50): 0.36
- MOLECULE: "N#Cc1ccc(-n2cncc2C(=O)c2ccc(Cl)c(Cl)c2)cc1"
  log10(EC50): 0.75
- MOLECULE: "Cn1cncc1C(=O)c1cccc(Cl)c1"
  log10(EC50): 1.51
- MOLECULE: "CCn1cncc1C(=O)c1ccc(SC)c(OC)c1"
  log10(EC50): 0.60
- MOLECULE: "CNc1ccc(C(=O)c2cncn2C)cc1"
  log10(EC50): 3.21
- MOLECULE: "COc1cc(C(=O)c2cncn2C(C)C)ccc1SC(F)(F)F"
  log10(EC50): 1.20
- MOLECULE: "COc1ccc(C(=O)c2cncn2C)cc1"
  log10(EC50): 2.07
- MOLECULE: "CCn1cncc1C(=O)c1ccc(SC(F)(F)F)cc1"
  log10(EC50): 2.37
- MOLECULE: "COc1cc(C(=O)c2cncn2C2CC2)ccc1SC"
  log10(EC50): 0.45
- MOLECULE: "CC(C)n1cncc1C(=O)c1ccc(Cl)c(F)c1"
  log10(EC50): -0.15
- MOLECULE: "CCn1cncc1C(=O)c1ccc(F)c(Cl)c1"
  log10(EC50): 0.57
- MOLECULE: "Cn1cncc1C(=O)c1ccc(C#N)c(Cl)c1"
  log10(EC50): 0.87
- MOLECULE: "CCn1cncc1C(=O)c1ccc(Cl)c(F)c1"
  log10(EC50): 0.43
- MOLECULE: "Cn1cncc1C(=O)c1ccc(C#N)cc1F"
  log10(EC50): 1.99
- MOLECULE: "Cn1cncc1C(=O)c1ccc(F)c(C#N)c1"
  log10(EC50): 2.76
- MOLECULE: "CC(=O)N(C)c1ccc(C(=O)c2cncn2C(C)C)cc1"
  log10(EC50): 1.71
- MOLECULE: "CCC(CC)n1cncc1C(=O)c1ccc(SC(F)(F)F)cc1"
  log10(EC50): 1.63

---

target: human CYP11B1 (Homo sapiens, UniProt P15538); assay: G-402 cellular enzyme assay, human CYP11B1 (cortisol release, HTRF); details: G-402 cells expressing human CYP11B1; 1 μM Deoxycortisol; 16 h
Sequence (P15538 25-503): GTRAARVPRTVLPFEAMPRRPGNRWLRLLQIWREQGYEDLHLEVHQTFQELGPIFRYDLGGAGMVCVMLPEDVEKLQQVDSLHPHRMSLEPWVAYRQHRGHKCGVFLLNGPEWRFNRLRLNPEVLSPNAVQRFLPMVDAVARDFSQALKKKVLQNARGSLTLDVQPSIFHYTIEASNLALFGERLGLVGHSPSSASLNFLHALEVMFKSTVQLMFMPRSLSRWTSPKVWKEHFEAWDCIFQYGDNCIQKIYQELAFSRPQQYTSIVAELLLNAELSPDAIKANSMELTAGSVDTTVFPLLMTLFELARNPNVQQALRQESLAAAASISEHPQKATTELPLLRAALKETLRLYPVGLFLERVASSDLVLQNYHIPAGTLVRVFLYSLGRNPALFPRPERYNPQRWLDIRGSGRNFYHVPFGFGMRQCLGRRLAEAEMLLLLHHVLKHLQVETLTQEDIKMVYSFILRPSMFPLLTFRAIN
pEC50: −log10 of the molar value.
Classification field: Satisfied = pEC50 at or over 7; Not satisfied = pEC50 under 7.

- COMPOUND: "N#Cc1ccc(-n2cncc2C(=O)c2ccc(Cl)c(Cl)c2)cc1"
  LABEL: "Not satisfied"
- COMPOUND: "CCn1cncc1C(=O)c1ccc(C#N)c(Cl)c1"
  LABEL: "Satisfied"
- COMPOUND: "O=C(c1ccc(Cl)c(Cl)c1)c1cncn1-c1ccc(Cl)cc1"
  LABEL: "Not satisfied"
- COMPOUND: "Cn1cncc1C(=O)c1ccc(C(F)(F)F)cc1"
  LABEL: "Not satisfied"
- COMPOUND: "Cn1cncc1C(=O)c1ccc(Cl)cc1Cl"
  LABEL: "Not satisfied"
- COMPOUND: "C#Cc1ccc(C(=O)c2cncn2CC)cc1"
  LABEL: "Satisfied"
- COMPOUND: "CC(C)n1cncc1C(=O)c1ccc(C#N)c(Cl)c1"
  LABEL: "Satisfied"
- COMPOUND: "Cn1cncc1C(=O)c1ccc(C#N)cc1F"
  LABEL: "Not satisfied"
- COMPOUND: "CCC(C)n1cncc1C(=O)c1cccc(Cl)c1 (stereo not drawn)"
  LABEL: "Satisfied"
- COMPOUND: "Cn1cncc1C(=O)c1ccc(C#N)cc1"
  LABEL: "Not satisfied"
- COMPOUND: "CCC(CC)n1cncc1C(=O)c1ccc(SC(F)(F)F)cc1"
  LABEL: "Not satisfied"
- COMPOUND: "CCSc1ccc(C(=O)c2cncn2CC)cc1"
  LABEL: "Not satisfied"
- COMPOUND: "CCn1cncc1C(=O)c1ccc(C(C)(C)C)cc1"
  LABEL: "Not satisfied"
- COMPOUND: "CCn1cncc1C(=O)c1ccc(C(F)(F)F)cc1"
  LABEL: "Not satisfied"
- COMPOUND: "O=C(c1ccc(Cl)c(F)c1)c1cncn1C1CC1"
  LABEL: "Satisfied"
- COMPOUND: "CC(C)n1cncc1C(=O)c1ccc(Br)cc1"
  LABEL: "Satisfied"
- COMPOUND: "COc1cc(C(=O)c2cncn2C)ccc1SC"
  LABEL: "Not satisfied"
- COMPOUND: "Cn1cncc1C(=O)c1ccc(F)c(C#N)c1"
  LABEL: "Not satisfied"
- COMPOUND: "O=C(c1ccc(Cl)cc1)c1cncn1-c1ccc(Cl)cc1"
  LABEL: "Not satisfied"
- COMPOUND: "COc1cc(C(=O)c2cncn2C(C)C)ccc1SC(F)(F)F"
  LABEL: "Not satisfied"
- COMPOUND: "Cn1cncc1C(=O)c1ccc(Cl)c(Cl)c1"
  LABEL: "Not satisfied"
- COMPOUND: "CCn1cncc1C(=O)c1ccc(F)c(Cl)c1"
  LABEL: "Satisfied"
- COMPOUND: "CC(C)n1cncc1C(=O)c1ccc(SC(F)(F)F)cc1"
  LABEL: "Not satisfied"
- COMPOUND: "CCn1cncc1C(=O)c1ccc(N(C)C=O)cc1"
  LABEL: "Not satisfied"
- COMPOUND: "Cn1cncc1C(=O)c1ccc2sccc2c1"
  LABEL: "Not satisfied"
- COMPOUND: "Cn1cncc1C(=O)c1ccc(C(C)(C)C)cc1"
  LABEL: "Not satisfied"
- COMPOUND: "CCC(CC)n1cncc1C(=O)c1ccc(C#N)cc1"
  LABEL: "Satisfied"
- COMPOUND: "Cn1cncc1C(=O)c1ccc(Br)cc1"
  LABEL: "Not satisfied"
- COMPOUND: "CC(C)n1cncc1C(=O)c1cccc(Cl)c1"
  LABEL: "Satisfied"

These entries and their values trace back to patent US9464058B2.
